method: Solubility evaluation in organic solvent
Format: physicochemical
experimentalContext: chlorobenzene; 30 mg compound made up to 1.0 g solution, rolled at room temperature for 1 hour, 0.2 μm syringe filter
parameter: Solubility Chlorobenzene

c1cncc(-c2nnc(-c3cc(-c4ccc5c(c4)C4(c6ccccc6-c6ccccc64)c4ccccc4-5)cc(-c4ccc5c(c4)C4(c6ccccc6-c6ccccc64)c4ccccc4-5)c3)o2)c1 [Chem. Form. 44]; equal to 3 wt %
c1ccc2c(c1)c1ccccc1n2-c1ccc(-c2ccc(-n3c4ccccc4c4ccccc43)cc2)cc1 [CBP, 4,4-N,N-dicarbazolebiphenyl, reference compound]; 1 wt %
c1ccc(-n2c3ccccc3c3ccc4c5ccccc5n(-c5ccccc5)c4c32)cc1 [Chem. Form. 38]; equal to 3 wt %
c1ccc(-c2nnc(-c3ccc(-c4ccc5c(c4)C4(c6ccccc6-c6ccccc64)c4ccccc4-5)cc3)o2)cc1 [Chem. Form. 43]; equal to 3 wt %

Let us move to another entry and its Solubility Chlorobenzene.
Summary for this compound, c1ccc(-n2c3ccccc3c3c4c5ccccc5n(-c5ccccc5)c4ccc32)cc1 [Chem. Form. 20] : Solubility Chlorobenzene is equal to 3 wt %
